- Target: 3',5'-cyclic-AMP phosphodiesterase 4A (Homo sapiens, UniProt P27815)
- Sequence (P27815 whole entry, looked up, stated change not applied, the tested form may be a part, canonical isoform): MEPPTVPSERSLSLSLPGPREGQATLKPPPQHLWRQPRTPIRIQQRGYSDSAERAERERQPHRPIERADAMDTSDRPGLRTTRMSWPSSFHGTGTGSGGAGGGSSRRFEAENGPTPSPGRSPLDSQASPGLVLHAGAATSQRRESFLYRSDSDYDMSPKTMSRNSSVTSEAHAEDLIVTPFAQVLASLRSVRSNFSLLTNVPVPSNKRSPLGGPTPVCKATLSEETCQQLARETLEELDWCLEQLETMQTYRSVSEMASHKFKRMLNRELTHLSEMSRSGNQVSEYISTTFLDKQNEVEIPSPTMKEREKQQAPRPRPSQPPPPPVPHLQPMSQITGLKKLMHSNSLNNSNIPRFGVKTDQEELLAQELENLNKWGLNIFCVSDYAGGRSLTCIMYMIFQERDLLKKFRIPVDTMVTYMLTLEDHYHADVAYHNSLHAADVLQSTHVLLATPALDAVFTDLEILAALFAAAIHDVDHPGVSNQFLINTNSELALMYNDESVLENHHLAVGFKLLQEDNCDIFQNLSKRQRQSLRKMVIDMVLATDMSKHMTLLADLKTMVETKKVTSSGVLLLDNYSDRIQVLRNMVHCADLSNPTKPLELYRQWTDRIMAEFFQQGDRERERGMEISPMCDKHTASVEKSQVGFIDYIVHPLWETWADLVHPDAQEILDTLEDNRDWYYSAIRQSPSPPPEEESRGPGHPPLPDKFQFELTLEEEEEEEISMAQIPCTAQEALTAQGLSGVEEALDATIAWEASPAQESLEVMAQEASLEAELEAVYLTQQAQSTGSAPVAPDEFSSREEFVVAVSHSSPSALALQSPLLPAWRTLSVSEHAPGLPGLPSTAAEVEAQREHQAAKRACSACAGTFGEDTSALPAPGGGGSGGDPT
- Assay remarks: In vitro inhibitory activity was determined against human Phosphodiesterase 4 isoform using a construct representing the common region of spliced variants expressed as a GST-fusion protein in Sf 9 cells
Quantity: IC50 (nM)

Below, each entry is followed by its recorded IC50 result.
[O-][n+]1cccc(C[C@@H](c2ccc(OC(F)F)c(OC3CC3)c2)c2cnc(C(O)(C(F)(F)F)C(F)(F)F)s2)c1 | 0.5
[O-][n+]1cccc(C[C@H](c2ccc(OC(F)F)c(OC3CC3)c2)c2cnc(C(O)(C(F)(F)F)C(F)(F)F)s2)c1 | 48
CC(C)(O)c1ccc(C(Cc2cc[n+]([O-])cc2)c2ccc(OC(F)F)c(OC3CCC3)c2)cn1 (configuration not stated) | 1

[A] [O-][n+]1ccc(CC(c2ccc(OC(F)F)c(OC3CCC3)c2)c2cnc(C(O)(C(F)(F)F)C(F)(F)F)s2)cc1 (racemic)
[B] CC(C)(O)c1ccc(C(Cc2cc[n+]([O-])cc2)c2ccc(OC(F)F)c(OC(F)F)c2)cn1 (stereo in doubt; 2a(+))
[C] CC(C)(O)c1ccc(C(Cc2cc[n+]([O-])cc2)c2ccc(OC(F)F)c(OC3CC3)c2)cn1 (single isomer, unassigned; (-))
[D] CC(C)(O)c1ccc(C(Cc2cc[n+]([O-])cc2)c2ccc(OC(F)F)c(OC3CC3)c2)cn1 (single isomer, unassigned; (+))
## Input Descending sort on IC50 required. # answer = labels listed in requested order
## Output B, C, D, A
(B: 520 nM, C: 55 nM, D: 1.2 nM, A: 0.8 nM)

====

- Target: 3',5'-cyclic-AMP phosphodiesterase 4A (Homo sapiens, UniProt P27815)
- Assay remarks: In vitro inhibitory activity was determined against human Phosphodiesterase 4 isoform using a construct representing the common region of spliced variants expressed as a GST-fusion protein in Sf 9 cells
Quantity: IC50 (nM)

CC(C)(O)c1ccc(C(Cc2cc[n+]([O-])cc2)c2ccc(OC(F)F)c(OC3CCC3)c2)cc1 (racemic) | 1.6
CC(C)(O)c1ccc(C(Cc2cc[n+]([O-])cc2)c2ccc(OC(F)F)c(OC(F)F)c2)cn1 (single isomer, unassigned; (-)) | 35

[a] [O-][n+]1ccc(CC(c2ccc(OC(F)F)c(OC3CC3)c2)c2cnc(C(O)(C(F)(F)F)C(F)(F)F)s2)cc1 (racemic)
[b] O=c1[nH]c2c(O)ccc(CCNCCS(=O)(=O)CCCOCCc3ccccc3)c2s1
## Input Which shows the larger IC50 value: a or b ? Identify your pick by its label.
## Output b

====

- Assay remarks: In vitro inhibitory activity was determined against human whole blood
- Format: functional
pIC50: −log10 of the molar value.
Quantity: pIC50

CC(C)(O)c1ncc(C(Cc2cc[n+]([O-])cc2)c2ccc(OC(F)F)c(OC3CCC3)c2)s1 (stereo not drawn) | 7.00

[a] [O-][n+]1cccc(C[C@@H](c2ccc(OC(F)F)c(OC3CC3)c2)c2cnc(C(O)(C(F)(F)F)C(F)(F)F)s2)c1
[b] CC(O)(c1ccccc1)c1ccc(C(Cc2cc[n+]([O-])cc2)c2ccc(OC(F)F)c(OC(F)F)c2)cn1 (stereo not drawn)
## Input Between the two listed entries a and b , which has its pIC50 at the higher number? # answer = label of selected item
## Output a
